B1: library; numbered along this chain (parent)
chain: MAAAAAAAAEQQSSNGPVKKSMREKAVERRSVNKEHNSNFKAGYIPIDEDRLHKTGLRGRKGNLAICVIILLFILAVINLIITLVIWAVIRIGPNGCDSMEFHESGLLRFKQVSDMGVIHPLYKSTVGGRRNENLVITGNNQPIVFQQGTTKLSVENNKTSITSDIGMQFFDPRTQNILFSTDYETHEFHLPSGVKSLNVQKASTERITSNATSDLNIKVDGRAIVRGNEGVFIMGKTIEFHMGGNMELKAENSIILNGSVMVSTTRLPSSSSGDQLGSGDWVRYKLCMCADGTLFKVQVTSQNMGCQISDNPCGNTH

# Variants of: B1
# MEASUREMENT NOTES: SGCB cell-surface expression functional score (HA stain, bin4 vs bin1, normalised to synonymous) (log10 ratio); higher = more cell-surface SGCB (functional)
PARAMETER: SGCB cell-surface expression functional score (log10)
Lab note: write the figure by itself, no unit.

As a guide, the following entries are already answered.
INSERT INTO measurements (mutant_code, meas_value) VALUES
  ('K297S', -0.17),
  ('G222D', -0.04),
  ('T151L', -1.22);

For R130M , what is its reported SGCB cell-surface expression functional score (log10)?
0.56

Next entry: K19A
0.35
